- test-method-notes: Therapeutic index as the ratio of LD50 to that of ED50 values.
value-kind: therapeutic index (LD50/ED50)

- Cl.O=c1n(CCCN2CCN(c3cc(-c4ccccc4)c4ccccc4n3)CC2)nc2ccccn12: 9.7
- Cl.ClCCCN1CCN(c2cc(-c3ccccc3)c3ccccc3n2)CC1: 21.4
- CN(C)CCSc1cc(-c2ccccc2)c2ccccc2n1.Cl: 4.7
- CN(C)CCN(C)c1cc(-c2ccccc2)c2ccccc2n1.Cl: 3.63
- Cl.c1ccc(-c2cc(N3CCNCC3)nc3ccccc23)cc1: 12.7
- CN(C)CCNc1cc(-c2ccccc2)c2ccccc2n1.Cl: 3.92
- CCN(CC)Cc1cc(-c2ccccc2)c2ccccc2n1.Cl: 7.76
- CN(C)CCOc1cc(-c2ccccc2)c2ccccc2n1.Cl: 10.9

====

- test-method-notes: Lethal dose was evaluated against reserpine induced hypothermia in mice by intraperitoneal administration
- Assay type: toxicity, organism-based
- protocol-conditions: mouse, in vivo, ip
Collected LD50 values appear next to each entry.
value-kind: LD50 (mg/kg)

- c1ccc2nc(N3CCNCC3)ccc2c1 [QUIPAZINE]: 135
- CCN(CC)Cc1cc(-c2ccccc2)c2ccccc2n1.Cl: 163
- CN(C)CCCSc1cc(-c2ccccc2)c2ccccc2n1.Cl: 189
- CN(C)CCCN(C)c1cc(-c2ccccc2)c2ccccc2n1.Cl: 110
- CN(C)CCCOc1cc(-c2ccccc2)c2ccccc2n1.Cl: 200
- CN(C)CCOc1cc(-c2ccccc2)c2ccccc2n1.Cl: 202
- Cl.ClCCCN1CCN(c2cc(-c3ccccc3)c3ccccc3n2)CC1: 385
- Cl.c1ccc(-c2cc(N3CCNCC3)nc3ccccc23)cc1: 152
- CN(C)CCNc1cc(-c2ccccc2)c2ccccc2n1.Cl: 102
- Cl.O=c1n(CCCN2CCN(c3cc(-c4ccccc4)c4ccccc4n3)CC2)nc2ccccn12: 390
- CN(C)CCN(C)c1cc(-c2ccccc2)c2ccccc2n1.Cl: 98
- CN(C)CCSc1cc(-c2ccccc2)c2ccccc2n1.Cl: 198
- CN(C)CCCNc1cc(-c2ccccc2)c2ccccc2n1.Cl: 100
